target: human TLR2 (Homo sapiens); construct: expressed in transfected cells; host or cells: HEK-Blue hTLR2; test: HEK-Blue hTLR2 Dose Response (NF-κB SEAP reporter); type: cell-based; details: 1.95 pg/mL
Sequence (O60603 21-784): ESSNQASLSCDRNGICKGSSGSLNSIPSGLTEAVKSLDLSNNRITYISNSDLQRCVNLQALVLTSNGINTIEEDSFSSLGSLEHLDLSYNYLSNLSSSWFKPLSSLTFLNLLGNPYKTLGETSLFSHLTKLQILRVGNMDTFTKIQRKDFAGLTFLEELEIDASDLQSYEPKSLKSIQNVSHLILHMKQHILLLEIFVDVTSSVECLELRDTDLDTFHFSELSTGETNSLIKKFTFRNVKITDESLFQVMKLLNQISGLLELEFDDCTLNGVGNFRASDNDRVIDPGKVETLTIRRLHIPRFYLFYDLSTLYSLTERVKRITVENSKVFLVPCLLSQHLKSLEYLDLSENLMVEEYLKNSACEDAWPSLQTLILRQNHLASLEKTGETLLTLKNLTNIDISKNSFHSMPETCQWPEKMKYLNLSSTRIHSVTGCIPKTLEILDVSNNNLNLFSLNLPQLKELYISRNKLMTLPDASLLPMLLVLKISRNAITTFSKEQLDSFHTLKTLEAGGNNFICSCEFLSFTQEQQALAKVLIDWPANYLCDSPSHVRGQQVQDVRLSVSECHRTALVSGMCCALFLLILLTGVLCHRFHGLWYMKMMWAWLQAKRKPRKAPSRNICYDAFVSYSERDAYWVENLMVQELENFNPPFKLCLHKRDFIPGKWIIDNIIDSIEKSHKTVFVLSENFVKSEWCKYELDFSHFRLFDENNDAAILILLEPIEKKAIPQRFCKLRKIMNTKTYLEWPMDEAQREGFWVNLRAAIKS
Sequence (Q9Y2C9 32-796 partner): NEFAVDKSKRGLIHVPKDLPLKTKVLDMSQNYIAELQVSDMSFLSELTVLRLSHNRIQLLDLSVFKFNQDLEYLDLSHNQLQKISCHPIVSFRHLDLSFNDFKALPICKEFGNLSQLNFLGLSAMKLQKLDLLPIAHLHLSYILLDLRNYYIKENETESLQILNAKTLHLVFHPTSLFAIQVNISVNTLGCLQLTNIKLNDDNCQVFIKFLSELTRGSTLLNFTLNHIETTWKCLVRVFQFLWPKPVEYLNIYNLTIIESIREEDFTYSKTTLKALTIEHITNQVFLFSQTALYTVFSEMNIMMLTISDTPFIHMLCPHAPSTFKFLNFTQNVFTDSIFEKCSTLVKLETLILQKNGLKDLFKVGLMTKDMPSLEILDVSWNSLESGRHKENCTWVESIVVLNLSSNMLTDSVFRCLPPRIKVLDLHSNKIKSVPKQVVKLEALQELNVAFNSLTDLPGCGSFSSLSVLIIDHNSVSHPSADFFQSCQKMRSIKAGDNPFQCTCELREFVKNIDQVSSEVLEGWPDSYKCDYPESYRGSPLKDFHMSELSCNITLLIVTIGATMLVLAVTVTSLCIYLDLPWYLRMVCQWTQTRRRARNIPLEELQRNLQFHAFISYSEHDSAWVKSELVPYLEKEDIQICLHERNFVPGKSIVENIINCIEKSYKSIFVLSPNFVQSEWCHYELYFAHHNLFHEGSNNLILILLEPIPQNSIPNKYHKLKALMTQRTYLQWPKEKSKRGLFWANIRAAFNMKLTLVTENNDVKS
// classify: if (optical density (650 nm), Average < 2) 1 else 0

A selection of reference data follows.
CCCCCCCCCCCCCC[C@H](C)C(=O)OC[C@H](CSC[C@H](N)C(=O)N[C@@H](CO)C(=O)NCCOCCOCCOCCOCCOCCOCCOCCOCCOCCOCCOCCOCCOCCOCCOCCOCCOCCOCCOCCOCCOCCOCCOCCOCCOCCOCCOCCOCCC(=O)NCC(N)=O)OC(=O)[C@@H](C)CCCCCCCCCCCCCC [B8]: 0
CCCCCCCCCCCCCC[C@@H](C)C(=O)OC[C@H](CSC[C@H](N)C(=O)N[C@@H](CO)C(=O)NCCOCCOCCOCCOCCOCCOCCOCCOCCOCCOCCOCCOCCOCCOCCOCCOCCOCCOCCOCCOCCOCCOCCOCCOCCOCCOCCOCCOCCC(=O)NCC(N)=O)OC(=O)[C@H](C)CCCCCCCCCCCCCC [B6]: 1
CCCCCCCCCCCCCC[C@H](C)C(=O)OCC[C@H](CSC[C@H](N)C(=O)N[C@@H](CO)C(=O)NCCOCCOCCOCCOCCOCCOCCOCCOCCOCCOCCOCCOCCOCCOCCOCCOCCOCCOCCOCCOCCOCCOCCOCCOCCOCCOCCOCCOCCC(=O)NCC(N)=O)OC(=O)[C@@H](C)CCCCCCCCCCCCCC [B16]: 1

Lab log: compare recorded optical density (650 nm), Average with 2; is it strictly lower for CCCCCCCCCCCCCCC(C)C(=O)OC[C@H](CSC[C@H](N)C(=O)N[C@@H](CO)C(=O)NCCOCCOCCOCCOCCOCCOCCOCCOCCOCCOCCOCCOCCOCCOCCOCCOCCOCCOCCOCCOCCOCCOCCOCCOCCOCCOCCOCCOCCC(=O)NCC(N)=O)OC(=O)C(C)CCCCCCCCCCCCCC (stereo partly drawn) [B4] ?
1
